experimental_system: NS3hel (NS3 helicase domain) (Hepatitis C virus genotype 1b …, UniProt Q9WMX2 1193-1657)
Sequence (Q9WMX2 1193-1657): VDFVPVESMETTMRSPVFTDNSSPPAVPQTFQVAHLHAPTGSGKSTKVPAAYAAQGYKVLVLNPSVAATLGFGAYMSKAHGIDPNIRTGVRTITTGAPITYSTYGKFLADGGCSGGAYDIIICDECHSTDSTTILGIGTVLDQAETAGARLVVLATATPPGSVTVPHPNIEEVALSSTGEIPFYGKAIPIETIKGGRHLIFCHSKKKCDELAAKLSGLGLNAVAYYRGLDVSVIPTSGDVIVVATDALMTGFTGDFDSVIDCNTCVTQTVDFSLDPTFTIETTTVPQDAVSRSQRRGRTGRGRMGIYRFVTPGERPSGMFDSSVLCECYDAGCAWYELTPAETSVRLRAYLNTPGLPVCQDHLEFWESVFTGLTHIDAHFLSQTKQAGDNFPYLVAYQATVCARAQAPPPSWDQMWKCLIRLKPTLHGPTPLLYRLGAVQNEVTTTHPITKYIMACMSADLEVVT
test_description: fluorescence anisotropy; pH 7.2, 2 mM MgCl2; 25 mM MOPS-NaOH pH 6.4 or 7.2, 2 mM MgCl2, 25 C; 25 nM 5-FAM-dT20 with 0-10 uM NS3hel or 0-5 uM NS3FL, 10 min (anisotropy); 1 uM protein with 0-1 uM ssDNA (Trp)
stated_conditions: protein: recombinant; tags: N-terminal 6xHis-TEV, cleaved; label: 5'-carboxyfluorescein (5-FAM); single strand
pKd: −log10 of the molar value.
result_type: pKd

### Prompt Can you look up the measured pKd of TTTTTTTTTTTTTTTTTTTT (ssDNA) [5-FAM oligo(dT)20] for me?
### Response ~6.60
